- target_system: recombinant human mGluR2 (Homo sapiens, UniProt Q14416)
- Sequence (Q14416 19-872): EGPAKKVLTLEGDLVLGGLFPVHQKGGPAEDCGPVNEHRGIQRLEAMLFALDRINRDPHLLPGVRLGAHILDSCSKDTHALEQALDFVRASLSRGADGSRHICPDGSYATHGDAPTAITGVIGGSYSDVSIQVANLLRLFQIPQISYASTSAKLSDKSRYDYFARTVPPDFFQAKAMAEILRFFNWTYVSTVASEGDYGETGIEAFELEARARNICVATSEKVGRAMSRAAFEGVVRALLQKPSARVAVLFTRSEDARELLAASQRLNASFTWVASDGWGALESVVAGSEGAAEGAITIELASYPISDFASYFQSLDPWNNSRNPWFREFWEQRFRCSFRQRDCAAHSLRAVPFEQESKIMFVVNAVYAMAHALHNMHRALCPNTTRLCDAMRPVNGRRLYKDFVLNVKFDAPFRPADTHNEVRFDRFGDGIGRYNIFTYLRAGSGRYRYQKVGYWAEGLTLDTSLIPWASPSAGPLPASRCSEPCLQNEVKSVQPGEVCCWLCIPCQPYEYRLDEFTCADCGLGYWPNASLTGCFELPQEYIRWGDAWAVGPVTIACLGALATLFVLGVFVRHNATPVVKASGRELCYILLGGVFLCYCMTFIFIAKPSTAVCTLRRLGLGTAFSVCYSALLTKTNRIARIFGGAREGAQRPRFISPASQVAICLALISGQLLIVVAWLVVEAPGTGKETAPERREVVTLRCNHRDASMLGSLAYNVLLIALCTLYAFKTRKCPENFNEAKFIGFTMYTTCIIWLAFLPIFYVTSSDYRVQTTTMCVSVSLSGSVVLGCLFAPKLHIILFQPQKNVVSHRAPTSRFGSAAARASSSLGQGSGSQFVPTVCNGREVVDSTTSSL
- measurement_protocol: FLIPR Ca2+ mobilization assay, potentiation of glutamate (EC20) response
- condition_description: CHO dhfr- cells expressing human mGluR2 and Gα16; potentiation with EC20 glutamate (900 nM); read-out: Representative FLIPR EC50 Values
Please assign no (0) whenever EC50 is at or above 10 nM, and yes (1) whenever it is below.

compound=FC1(F)CCCN(Cc2cccnc2Oc2ccc3c(nnn3CC3CC3)c2Br)C1 qualitative_label="no (0)"
compound=CC(C)(C)Cn1nnc2c(Br)c(Oc3ncccc3C(F)(F)F)ccc21 qualitative_label="no (0)"
compound=FC1(F)CCN(Cc2cccnc2Oc2ccc3c(nnn3CC3CC3)c2Br)CC1 qualitative_label="no (0)"
compound=CS(=O)(=O)N1CCCN(Cc2cc(Cl)cnc2Oc2ccc3c(nnn3CC3CC3)c2Br)CC1 qualitative_label="yes (1)"
compound="OCC(O)c1cccnc1Oc1ccc2c(nnn2CC2CC2)c1Br (centres unmarked)" qualitative_label="no (0)"
compound="CC(O)c1cccnc1Oc1ccc2c(nnn2CC2CC2)c1C(F)(F)F (racemic)" qualitative_label="no (0)"
compound="CC(C)(C)C(O)c1cccnc1Oc1ccc2c(nnn2CC2CC2)c1Br (centres unmarked) [Example 72]" qualitative_label="yes (1)"
compound="CC(C)(C)C(O)c1cccnc1Oc1ccc2c(nnn2CC2CC2)c1Br (centres unmarked) [Example 91]" qualitative_label="yes (1)"
compound="OC(c1cccnc1Oc1ccc2c(nnn2CC2CC2)c1C(F)(F)F)C1CC1 (centres unmarked)" qualitative_label="no (0)"
compound=CC(C)(C)Cn1nnc2c(Br)c(Oc3ccncc3)ccc21 qualitative_label="no (0)"
compound=Cc1cccnc1Oc1ccc2c(nnn2CC(C)(C)C)c1Br qualitative_label="no (0)"
compound=Clc1cnc(Oc2ccc3c(nnn3CC3CC3)c2Br)c(CN2CCN(c3nccs3)CC2)c1 qualitative_label="yes (1)"
compound="OC1(c2cccnc2Oc2ccc3c(nnn3CC3CC3)c2Cl)CCC(C(F)(F)F)CC1 (centres unmarked)" qualitative_label="no (0)"
compound=CS(=O)(=O)NC1CCN(Cc2cc(Cl)cnc2Oc2ccc3c(nnn3CC3CC3)c2Br)CC1 qualitative_label="yes (1)"
compound="CC1CN(Cc2cc(F)cnc2Oc2ccc3c(nnn3CC3CC3)c2Br)CCN1S(C)(=O)=O (stereo in doubt)" qualitative_label="yes (1)"
compound=O=C(NCc1cc(F)cnc1Oc1ccc2c(nnn2CC2CC2)c1Br)c1ccon1 qualitative_label="no (0)"
compound="CC(O)c1ncccc1Oc1ccc2c(nnn2CC(C)(C)C)c1Br (centres unmarked)" qualitative_label="no (0)"
compound="COCC(OC)c1cccnc1Oc1ccc2c(nnn2CC2CC2)c1Br (centres unmarked)" qualitative_label="no (0)"
compound=OC(CF)(CF)c1cccnc1Oc1ccc2c(nnn2CC2CC2)c1Cl qualitative_label="no (0)"
compound="FCC1CCN(Cc2cccnc2Oc2ccc3c(nnn3CC3CC3)c2Br)C1 (centres unmarked)" qualitative_label="no (0)"
compound=CS(=O)(=O)N1CCN(Cc2cc(Cl)cnc2Oc2ccc3c(nnn3CC3CC3)c2Br)CC1 qualitative_label="yes (1)"
compound=CC(C)(C)OC(=O)N1C[C@@H]2C[C@H]1CN2Cc1cc(Cl)cnc1Oc1ccc2c(nnn2CC2CC2)c1Br qualitative_label="no (0)"
compound=CC1(O)CCN(Cc2cccnc2Oc2ccc3c(nnn3CC3CC3)c2Br)CC1 qualitative_label="no (0)"
compound=CC(C)(C)Cn1nnc2c(Br)c(Oc3cccc(Br)n3)ccc21 qualitative_label="no (0)"
compound=Clc1cnc(Oc2ccc3c(nnn3CC3CC3)c2Br)c(CN2CC(n3cccn3)C2)c1 qualitative_label="yes (1)"
compound="OCC1C2CN(Cc3cc(Cl)cnc3Oc3ccc4c(nnn4CC4CC4)c3Br)CC12 (centres unmarked)" qualitative_label="no (0)"
compound="CCC(O)c1cccnc1Oc1ccc2c(nnn2CC(C)(C)C)c1Br (centres unmarked)" qualitative_label="no (0)"
compound=Cn1cc(-c2cnc(Oc3ccc4c(nnn4CC(C)(C)C)c3Br)c(C#N)c2)cn1 qualitative_label="no (0)"
compound=CC(C)(O)c1cccnc1Oc1ccc2c(nnn2CC2CC2)c1Cl qualitative_label="no (0)"
compound=CC(=O)N1CCCN(Cc2cc(F)cnc2Oc2ccc3c(nnn3CC3CC3)c2Br)CC1 qualitative_label="no (0)"
compound="OC(c1cccnc1Oc1ccc2c(nnn2CC2CC2)c1Br)C1CC1 (centres unmarked)" qualitative_label="no (0)"
compound=FC(F)(F)CNCc1cccnc1Oc1ccc2c(nnn2CC2CC2)c1Br qualitative_label="no (0)"
